These data points were gathered from the RNAGym collection of RNA variant scans (doi:10.7554/elife.80360).

B1: CPEB3 Ribozyme (parent)
chain: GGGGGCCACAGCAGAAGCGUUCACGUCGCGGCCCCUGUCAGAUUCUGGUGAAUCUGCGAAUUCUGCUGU

Variants of: B1
ASSAY METHOD TEXT: self-cleavage, relative activity (ratio to wild type); higher = more cleavage; co-transcriptional
Tick 1 if self-cleavage is 0.2 or greater. Tick -1 if self-cleavage is less than 0.2.

// known answers, use as guide
>  <RECORD SEQUENCE>
GGGGGGCACAGCAGAAGCGUUCACGUCGCGGCCCCUGUCAAAUUCUGGUGAAUCUGCGAAUUCUGCUGU [C6G G41A]

>  <GROUP>
-1

$$$$
>  <RECORD SEQUENCE>
GGGGGCCACAGCAGAAGCGUUCACGUCGCGGCCCCGGUCAGAUUCUGGUGACUCUGCGAAUUCUGCUGU [U36G A52C]

>  <GROUP>
1

$$$$
>  <RECORD SEQUENCE>
GGGGGCCACAGGAGAAGCGUUCACGUCCCGGCCCCUGUCAGAUUCUGGUGAAUCUGCGAAUUCUGCUGU [C12G G28C]

>  <GROUP>
-1

$$$$

hey, is self-cleavage for this one >= 0.2? GGGGGCCACAGCAGAAGCGUUCGCGUCGCGGCCCCUGUCAGAAUCUGGUGAAUCUGCGAAUUCUGCUGU [A23G U43A]
1

Try this variant too: GGGGGCCACAGCAGAAGCGUUCACGUCGCGGCCCCUGUCAGAUUCAGGUGAAUCAGCGAAUUCUGCUGU [U46A U55A]
1

Try this variant too: GGGGGCCACAGCAGAAGCGUUCACGUCGCGGCCCCUGUGAGAUUCUGGUGAAUCUGCGAAUUCUGCCGU [C39G U67C]
1

Try this variant too: GGCGGCCACAGCAGAAGCGUUCACGUCGCGGCCCCUGUCAGAAUCUGGUGAAUCUGCGAAUUCUGCUGU [G3C U43A]
-1

Try this variant too: GGGGGCCACAGCAGAAGCGUUCACGUCGCGGCCGCUGUCAGAUUCUGGUGAAUCUACGAAUUCUGCUGU [C34G G56A]
1

Try this variant too: GGGGGCCACAGCAGAAGCGUUCACGUCGCGCCCCCUGUCAGAUUCUGGUGAAUCCGCGAAUUCUGCUGU [G31C U55C]
1

Try this variant too: GGGGGCCACAGCAGAAGAGUGCACGUCGCGGCCCCUGUCAGAUUCUGGUGAAUCUGCGAAUUCUGCUGU [C18A U21G]
-1

Try this variant too: GGGGGCCACAGCAGAAGCGUAAACGUCGCGGCCCCUGUCAGAUUCUGGUGAAUCUGCGAAUUCUGCUGU [U21A C22A]
-1

Try this variant too: GGGGGUCACAGCAGAAGCGUUCACGUCGCGGCCCCAGUCAGAUUCUGGUGAAUCUGCGAAUUCUGCUGU [C6U U36A]
1
